test system: NCI-H522; test: NCI tumour cell line growth inhibition, 48 h
The source made the active and inactive calls. Rule as the data show it: active = GI50 up to about 1.1 µM and inactive = higher.
# valid calls are active, inactive; nothing else

Example results:
- Molecule: "COC1=CC(=O)c2c(c(-c3csc(C)n3)cn2C)C1=O"
  Assigned label: "inactive"
- Molecule: "C1CCCN(NC2=NCCO2)CC1"
  Assigned label: "inactive"
- Molecule: "CC1(C)CCC2(C(=O)O)C(O)CC3(C)C(=CCC4C5(C)CCC(OC6OCC(O)C(O)C6OC6OCC(O)C(O)C6OC6OCC(O)C(OC7OC(CO)C(O)C(O)C7O)C6O)C(C)(C)C5CCC43C)C2C1 (centres undefined)"
  Assigned label: "inactive"
- Molecule: "COC(=O)/C(C#N)=C(/NCc1ccccc1)Nc1ccccc1"
  Assigned label: "inactive"
- Molecule: "CC/C(Cl)=N\\OC(=O)Nc1ccccc1OC(F)(F)F"
  Assigned label: "active"
- Molecule: "CC(=O)N(C(C)=O)c1ncc(-n2nc(-c3ccccc3)cc2-c2ccccc2)c(-c2ccccc2)n1"
  Assigned label: "inactive"
- Molecule: "CCC12CCCN(Cc3ccccc3)C1c1c(n(C)c3ccccc13)[C@H](C(=O)OC)C2 (some centres undefined)"
  Assigned label: "inactive"
- Molecule: "Nc1ncnc2c1ncn2[C@@H]1O[C@H](COP(=O)(O)O)[C@@H](O)[C@@H]1O"
  Assigned label: "inactive"

For the next question, use this molecule.
[Q] Assay result, entry CCOC(=O)/C([O-])=C(\C(=O)OCC)[n+]1c(C)n(C)c2ccccc21 — outcome?
[A] inactive

###

test system: SF-295; experiment: NCI tumour cell line growth inhibition, 48 h
Active and inactive are the calls of the source. Rule as the data show it: active = GI50 up to about 1.1 µM and inactive = higher.
Choose one outcome from this list and give only that: 1 (yes) = active, 0 (no) = inactive

Example entries begin here.
- Line notation: "CCCCCCCNC(P(=O)(O)O)P(=O)(O)O"
  Assigned label: "0 (no)"
- Line notation: "Cc1cc(C)nc(SCCc2cccc[n+]2C)n1"
  Assigned label: "0 (no)"

Please examine the following record next.
[Q] Hello, I am checking results. What call was entered for C[N+](C)(Cc1ccc(NC(=O)CCCC(=O)ON2C(=O)CCC2=O)cc1)c1ccccc1 ?
[A] 1 (yes)

###

tested on: UACC-257; assay: NCI tumour cell line growth inhibition, 48 h
Active and inactive are the calls of the source. Rule as the data show it: active = GI50 up to about 1.1 µM and inactive = higher.
Output constraint: value belongs to yes (1) (active), no (0) (inactive)

Field: example entries. Status: answers known.
- Compound: "CC1(C)CC[C@]2(C)CC=C3[C@]4(C)CC[C@H]5C(C)(C)C(=O)CC[C@]5(C)[C@H]4CC[C@@]3(C)[C@H]2C1"
  Assigned label: "no (0)"
- Compound: "COc1ccc(Cc2coc3ccccc3c2=O)cc1OC"
  Assigned label: "no (0)"
- Compound: "COC(=O)CC1(CNC(=O)OCc2ccccc2)OCCO1"
  Assigned label: "no (0)"
- Compound: "O=Cc1c(C(=O)O)[nH]c(=O)[nH]c1=O"
  Assigned label: "no (0)"
- Compound: "Cc1cc(C)nc(SCCc2cccc[n+]2C)n1"
  Assigned label: "no (0)"
- Compound: "CCOC(=O)C(=CNc1ccc(S(N)(=O)=O)cc1)C(=O)OCC"
  Assigned label: "no (0)"

[Q] Which result was noted for this compound in the test: CC(C)=C1C(=O)C[C@@]2(C)C[C@H]3OC3(C)CC/C=C(/C)CCC12 (stereo not given in full)
[A] no (0)

###

system: DLD-1; assay: NCI tumour cell line growth inhibition, 48 h
The source made the active and inactive calls. Cut-off read from the data, not from the text of the source: active = GI50 up to about 1.1 µM and inactive = higher.
Bench note: report the call from active, inactive

Field: example entries. Status: answers known.
- Compound: "CSc1nnc(CCC(=O)Nc2c(C)cccc2C)o1"
  Tested target: "DLD-1"
  Assigned label: "inactive"
- Compound: "O=C(c1ccccc1)n1cc(/C=C/[N+](=O)[O-])c2ccccc21"
  Tested target: "DLD-1"
  Assigned label: "inactive"
- Compound: "COc1ccc2[nH]c3ccc4cc[n+](CCN5CCC(C6CCN(CC[n+]7ccc8ccc9[nH]c%10ccc(OC)cc%10c9c8c7)CC6)CC5)cc4c3c2c1"
  Tested target: "DLD-1"
  Assigned label: "active"
- Compound: "CCOC(=O)C1=C(OC(OCC)C([Se]c2ccccc2)C(C)C)CCC1 (stereo unspecified)"
  Tested target: "DLD-1"
  Assigned label: "inactive"
- Compound: "CC1OC(CC(=O)O)CC2=C1C(=O)c1c(O)cccc1C2=O (stereo unspecified) [NANAOMYCIN]"
  Tested target: "DLD-1"
  Assigned label: "active"
- Compound: "C=C1C(=O)C[C@@]23CCC[C@@]12CC(O)C3 (stereo partly specified)"
  Tested target: "DLD-1"
  Assigned label: "inactive"
- Compound: "COC(=O)c1sc(=NC(=S)N2CCCCC2)sc1C(=O)OC"
  Tested target: "DLD-1"
  Assigned label: "inactive"
- Compound: "CC1C[C@]2(C[C@@H](C)C(=O)O2)O[C@@H]2CC3(C)[C@@H]4CCC5C(C)(C)OC(=O)C[C@H]6OO[C@]4(CC[C@]3(C)C12)CC56O (stereo partly specified)"
  Tested target: "DLD-1"
  Assigned label: "inactive"
- Compound: "O=C1C2=C(c3ccccc31)C(c1ccc(Cl)cc1)NC(S)=N2 (stereo unspecified)"
  Tested target: "DLD-1"
  Assigned label: "inactive"
- Compound: "Nc1ncnc2c1ncn2[C@@H]1O[C@H](COP(=O)(O)O)[C@@H](O)[C@@H]1O"
  Tested target: "DLD-1"
  Assigned label: "inactive"

[Q] Which outcome was entered for the compound C=C1C(=O)OC2C1C(OC(=O)/C(C)=C\C)CC1(CO1)C1C(O)C=C(C)C21O (stereo unspecified) in this test?
[A] inactive

###

Below is a list of entries, each paired with its recorded GI50 value.
test system: SW-620; experiment: NCI tumour cell line growth inhibition, 48 h
The source made the active and inactive calls. Rule as the data show it: active = GI50 up to about 1.1 µM and inactive = higher.

- Compound: "CC1C[C@]2(C[C@@H](C)C(=O)O2)O[C@@H]2CC3(C)[C@@H]4CCC5C(C)(C)OC(=O)C[C@H]6OO[C@]4(CC[C@]3(C)C12)CC56O (stereo not given in full)"
  Readout type: "GI50"
  Reported value: "> 100 µM (inactive)"
- Compound: "[N-]=[N+]=CC(=O)c1ccccc1C#CCCc1ccccc1"
  Readout type: "GI50"
  Reported value: "32.7 µM (inactive)"
- Compound: "COc1ccc(/C(Cl)=C(\\CNc2ccccn2)c2ccccc2)cc1OC"
  Readout type: "GI50"
  Reported value: "> 100 µM (inactive)"
- Compound: "CC/C(Cl)=N\\OC(=O)Nc1ccccc1OC(F)(F)F"
  Readout type: "GI50"
  Reported value: "2.52 µM (inactive)"
- Compound: "O=C1CCCCCCCCCCC1CN1CCCC1 (stereo not given)"
  Readout type: "GI50"
  Reported value: "39.3 µM (inactive)"
- Compound: "CCCCCCC(C)CC(CCCCCC)NCCOC(=O)c1ccc([N+](=O)[O-])cc1 (stereo not given)"
  Readout type: "GI50"
  Reported value: "12.8 µM (inactive)"

[Q] Please give measured GI50 of the following entry: Cc1ccc(-c2c(C#N)c(-c3ccc([N+](=O)[O-])cc3)c(C#N)c(=O)n2NS(=O)(=O)c2ccccc2)cc1
[A] 38 µM (inactive)

[Q] State its GI50: COc1ccc2c(c1)CCc1cc(OC)ccc1/[N+]([O-])=[N+]\2[O-]
[A] 7.1 µM (inactive)

[Q] Return value of GI50 for input N=c1c2sc3nc4ccccc4n3c2ncn1Cc1ccccc1 , no commentary.
[A] > 100 µM (inactive)

[Q] Output GI50 of O=C(/C=C/c1cccs1)c1ccc([N+](=O)[O-])cc1
[A] > 100 µM (inactive)

[Q] Input CC1C(O)C2(Oc3cc4c(c5c3[C@@H](CC5O)[C@H]2C)CCC2Cc3nc5c(nc3C[C@@]42C)CC2CCC3C4=C[C@H]6O[C@@]7(O[C@@](C)(CO)C[C@@H]7O)C(C)[C@@]6(O)[C@]4(C)[C@@H](O)CC3[C@]2(C)C5)OC1(C)C (stereo not given in full) , output reported GI50.
[A] 0.201 µM (active)

[Q] Respond only with GI50 recorded for CCOC(=O)/C=C/c1cccc(F)c1
[A] > 100 µM (inactive)

[Q] Look up and report measured GI50 for this entry: C=C1C(=O)OC2C1C(OC(=O)/C(C)=C\C)CC1(CO1)C1C(O)C=C(C)C21O (stereo not given)
[A] 1.58 µM (inactive)

[Q] Answer with reported GI50 of Cc1ccc(NC(=O)CCC(=O)C2Cc3ccccc3C2=O)cc1C (stereo not given)
[A] > 100 µM (inactive)

[Q] Given O=C(O)C1CCCCC1c1c2ccc(=O)cc-2oc2cc(O)ccc12 (stereo not given) , respond with its GI50.
[A] 44.9 µM (inactive)

[Q] Let me know recorded GI50 for CC1=C(C(=O)Nc2ccc([N+](=O)[O-])cc2)C(c2ccccc2F)C(C(=O)Nc2ccc([N+](=O)[O-])cc2)=C(C)N1 , thanks.
[A] 21.8 µM (inactive)

[Q] State its GI50 for this compound: Nc1nc(Cl)cc(NCCCCCCCCCCCCNc2cc(Cl)nc(N)n2)n1
[A] 28.8 µM (inactive)

[Q] Note GI50 for the compound shown: O=C(c1ccccc1)C1C(C(=O)c2ccccc2)C(c2ccccc2)N(c2ccccc2)C1c1ccccc1 (stereo not given)
[A] > 100 µM (inactive)

[Q] Return the recorded GI50 value; entry: C=C1CC(c2ccc(OCCCN3C(=O)c4ccccc4C3=O)cc2)OC1=O (stereo not given)
[A] 1.48 µM (inactive)

[Q] // fetch GI50 given entry c1ccc2sc(C3(N4CCCC4)CCCCCC3)cc2c1
[A] 16.9 µM (inactive)

[Q] Please indicate GI50 recorded for CCCCCCCCCCC(C)CCCCCCC(=O)O (stereo not given)
[A] > 100 µM (inactive)

[Q] Give the measured GI50 for CCCCCCCCNC(=O)SCCCC
[A] 45.9 µM (inactive)

[Q] Report GI50, nothing else, for this compound: N=C(Cc1ccccc1)NCC(=O)O
[A] > 100 µM (inactive)

[Q] Give the measured GI50 for C=C1C(=O)C23CC1C[C@H](OC(C)=O)[C@H]2C1(C)C(OC(C)=O)C[C@H](O)C(C)(C)[C@H]1C(=O)[C@@H]3OC(C)=O (stereo not given in full)
[A] 1.71 µM (inactive)

[Q] Please indicate GI50 recorded for c1ccc(C[n+]2ccc3c(c2)CCCC3)cc1
[A] > 100 µM (inactive)
